Biological target: MMP-1 (Homo sapiens)
Sequence (P03956 100-469): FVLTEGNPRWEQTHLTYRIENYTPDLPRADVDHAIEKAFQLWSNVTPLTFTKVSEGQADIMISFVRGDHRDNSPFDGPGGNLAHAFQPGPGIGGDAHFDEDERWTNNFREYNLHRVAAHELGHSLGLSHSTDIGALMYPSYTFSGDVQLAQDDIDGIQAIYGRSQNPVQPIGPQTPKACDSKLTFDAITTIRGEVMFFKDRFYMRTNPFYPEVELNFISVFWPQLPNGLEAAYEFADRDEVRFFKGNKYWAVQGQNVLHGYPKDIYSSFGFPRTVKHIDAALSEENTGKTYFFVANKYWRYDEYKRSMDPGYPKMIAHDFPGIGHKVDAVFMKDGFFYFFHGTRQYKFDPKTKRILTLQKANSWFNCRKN
Assay: MMP-1 inhibitory action (Type I collagen Activity Measurement kit, FITC-labeled collagen type I)
Format: biochemical
Conditions: MMP-1 inhibitory action, FITC-labeled collagen type I, 37° C. for 3 hr; read-out: IC50 MMP1 (Experimental Example 2)
For each entry below, report its IC50 value.

What value of measured IC50 is listed for O=C(O)[C@@]1(NS(=O)(=O)c2ccc3c(c2)Cc2cc(F)ccc2-3)C[C@H]1c1ccccc1 ?
≥ 10 µM

What value of measured IC50 is listed for CN(C)C(=O)Cc1ccccc1C1CC1(NS(=O)(=O)c1ccc(-c2ccc(Cl)cc2)s1)C(=O)O (stereo not drawn) ?
≥ 10 µM

What value of measured IC50 is listed for CN(C)c1cccc(C2CC2(NS(=O)(=O)c2ccc(-c3ccc(Cl)cc3)cc2)C(=O)O)c1 (stereo not drawn) ?
≥ 1 µM

What value of measured IC50 is listed for CN(C)C(=O)c1ccccc1C1CC1(NS(=O)(=O)c1ccc(-c2ccc(Cl)cc2)s1)C(=O)O (stereo not drawn) ?
≥ 10 µM

What value of measured IC50 is listed for O=C(O)C1(NS(=O)(=O)c2ccc(-c3ccc(Cl)cc3)cc2)CC1c1cccc(NCc2ccccc2)c1 (stereo not drawn) ?
≥ 1 µM

What value of measured IC50 is listed for CCCC(=O)c1ccc(S(=O)(=O)NC2(C(=O)O)CC2c2ccccc2)s1 (stereo not drawn) ?
≥ 10 µM

What value of measured IC50 is listed for O=C(O)C1(NS(=O)(=O)c2ccc(-c3ccc(Cl)cc3)s2)CC1c1ccc(Br)cc1 (stereo not drawn) [Example 2-203] ?
≥ 10 µM

What value of measured IC50 is listed for CNC(=O)COc1cccc(C2CC2(NS(=O)(=O)c2ccc(-c3ccc(Cl)cc3)cc2)C(=O)O)c1 (stereo not drawn) ?
≥ 1 µM

What value of measured IC50 is listed for O=C(OCCc1ccccc1C1CC1(NS(=O)(=O)c1ccc(-c2cc(C(F)(F)F)on2)s1)C(=O)O)N1CCOCC1 (stereo not drawn) ?
≥ 1 µM

What value of measured IC50 is listed for O=C(O)[C@]1(NS(=O)(=O)c2ccc(-c3cc(C(F)F)on3)s2)C[C@@H]1c1ccccc1 ?
< 1 µM

What value of measured IC50 is listed for C[C@]1(c2ccccc2)C[C@@]1(NS(=O)(=O)c1ccc(-c2cc(CF)sn2)s1)C(=O)O ?
< 1 µM

What value of measured IC50 is listed for O=C(O)[C@]1(NS(=O)(=O)/C=C/c2ccc(Cl)cc2)C[C@@H]1c1ccccc1 ?
≥ 10 µM

What value of measured IC50 is listed for O=C(O)[C@]1(NS(=O)(=O)c2ccc(-c3ccc(Cl)cc3)s2)C[C@@H]1c1cccc([N+](=O)[O-])c1 ?
≥ 10 µM

What value of measured IC50 is listed for CC(C)(CO)NC(=O)c1cccc(C2CC2(NS(=O)(=O)c2ccc(-c3ccc(Cl)cc3)s2)C(=O)O)c1 (stereo not drawn) ?
≥ 10 µM

What value of measured IC50 is listed for O=C(Cc1cccc(C2CC2(NS(=O)(=O)c2ccc(-c3cc(C(F)(F)F)on3)s2)C(=O)O)c1)N1CCC(O)CC1 (stereo not drawn) ?
≥ 1 µM
